# assay_overview: Inhibition of c-Met in human A549 cells by wound healing assay
outcome_measure: IC50 (nM)
Note: unit nM is implicit; provide only the numeric part.

Request the reported IC50 associated with COc1cc2nccc(Oc3ccc(NC(=O)N4CCN(c5ccccc5)C4=O)cc3F)c2cc1OC 80

All figures here come from BindingDB's records for doi:10.1016/j.bmcl.2009.10.040.
